Listed next: entries and their corresponding Ki.
biological target: human D2 receptor (Homo sapiens (Human)); experiment: Test 1: binding activity for human D2 receptor ([3H]Spiperone, CHO cell membrane fraction); details: [3H]Spiperone, room temperature 60 minutes
Sequence (P14416 whole entry): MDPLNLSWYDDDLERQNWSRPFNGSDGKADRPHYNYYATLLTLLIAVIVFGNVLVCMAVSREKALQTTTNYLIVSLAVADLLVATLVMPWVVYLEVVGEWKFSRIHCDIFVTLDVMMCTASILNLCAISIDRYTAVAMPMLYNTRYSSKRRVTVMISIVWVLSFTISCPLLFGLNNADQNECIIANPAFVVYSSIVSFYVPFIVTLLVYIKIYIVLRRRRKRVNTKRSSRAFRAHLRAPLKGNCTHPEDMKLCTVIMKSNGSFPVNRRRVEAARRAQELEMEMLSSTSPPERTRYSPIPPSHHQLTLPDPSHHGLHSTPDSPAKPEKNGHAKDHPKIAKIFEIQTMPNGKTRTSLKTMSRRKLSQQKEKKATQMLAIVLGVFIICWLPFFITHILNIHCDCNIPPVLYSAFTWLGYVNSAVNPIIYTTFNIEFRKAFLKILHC

>>> assay_value("CCN(CCN1CCC(c2noc3cc(F)c(C)cc23)CC1)S(=O)(=O)CCO")
"> 1000 nM"
>>> assay_value("CCN(CCN1CCC(c2noc3cc(Cl)ccc23)CC1)S(=O)(=O)CCO")
"> 1000 nM"
>>> assay_value("CC(O)C(=O)N(CC#N)CCN1CCC(c2noc3cc(F)ccc23)CC1 (stereo not shown)")
"> 10000 nM"
>>> assay_value("CCN(CCN1CCC(c2noc3cc(F)ccc23)CC1)C(=O)C1(O)CCCNC1 (stereo not shown)")
"< 100 nM"
>>> assay_value("CCN(CCN1CCC(c2noc3ccc(C)cc23)CC1)S(=O)(=O)CCO")
"> 1000 nM"
>>> assay_value("CCN(CCN1CCC(c2noc3cc(F)ccc23)CC1)C(=O)[C@H]1CC[C@H](O)CC1")
"< 100 nM"
>>> assay_value("CCN(CCCN1CCC(c2noc3cc(F)ccc23)CC1)S(=O)(=O)C(C)CO (stereo not shown)")
"< 100 nM"
>>> assay_value("CCN(CCN1CCC(c2noc3cc(F)ccc23)CC1)C(=O)CC(C)O (stereo not shown)")
"< 100 nM"
>>> assay_value("CCN(CCN1CCC(c2noc3ccc(F)cc23)CC1)C(=O)[C@H](C)O")
"> 300 nM"
>>> assay_value("CCN(CCN1CCC(c2noc3ccc(C)cc23)CC1)C(=O)[C@H](C)O")
"> 1000 nM"

Which Ki value is on record for `CCN(CCN1CCC(n2ncc3cc(F)ccc32)CC1)C(=O)[C@@H](C)O` ? > 1000 nM

Check CCN(CCN1CCN(c2noc3ccccc23)CC1)C(=O)C(C)O (stereo not shown) too. > 10000 nM

Check CCN(CCN1CCC(n2ccc3cc(F)ccc32)CC1)C(=O)C(C)O (stereo not shown) too. > 1000 nM

Check `CC(C)N(CCN1CCC(c2noc3cc(F)ccc23)CC1)C(=O)CCO` too. < 100 nM

Check `CCN(CCN1CCC(c2noc3cc(F)ccc23)CC1)C(=O)[C@H]1CC[C@@H](O)CC1` too. < 100 nM

Check `CCN(CCN1CCC(n2ncc3cc(F)ccc32)CC1)S(=O)(=O)CCO` too. 532 nM

Check CCN(CCN1CCC(c2noc3cc(F)ccc23)CC1)C(=O)C1CC(O)C1 (stereo not shown) too. 75 nM

Check CCN(CCN1CCC(c2noc3cc(F)ccc23)CC1)C(=O)C(C)CO (stereo not shown) too. < 100 nM

Check CCCN(CCN1CCC(c2noc3cc(F)ccc23)CC1)C(=O)C(C)O (stereo not shown) too. < 100 nM

Check CCN(CCN1CCC(c2n[nH]c3cc(F)ccc23)CC1)C(=O)C(C)O (stereo not shown) too. 105 nM

Check `CC(C)N(CCN1CCC(c2noc3cc(F)ccc23)CC1)C(=O)[C@H](C)O` too. < 100 nM

Check CCN(CCN1CCN(c2noc3cc(F)ccc23)CC1)C(=O)C(C)O (stereo not shown) too. 2160 nM
